Emax overview
target: CFTR (F508del/MF-HBE cells) (Homo sapiens, UniProt P13569, DEL508-508); construct: human bronchial epithelial (HBE) cells derived from CF subjects heterozygous for F508del and a minimal function CFTR mutation (F508del/MF-HBE); endogenous in cells; host or cells: Primary human bronchial epithelial cells from CF subjects (F508del/MF genotype), differentiated at an air-liquid interface; assay: Ussing chamber assay of CFTR-mediated short-circuit currents, Assay C (0.026 μM to 25 μM, 6 concentrations); type: cell-based; details: with 33 nM potentiator and 18 μM Tezacaftor, 20% human serum, read-out: C Max activity (%)
Sequence (P13569 with tags, fused parts or gaps DEL508-508): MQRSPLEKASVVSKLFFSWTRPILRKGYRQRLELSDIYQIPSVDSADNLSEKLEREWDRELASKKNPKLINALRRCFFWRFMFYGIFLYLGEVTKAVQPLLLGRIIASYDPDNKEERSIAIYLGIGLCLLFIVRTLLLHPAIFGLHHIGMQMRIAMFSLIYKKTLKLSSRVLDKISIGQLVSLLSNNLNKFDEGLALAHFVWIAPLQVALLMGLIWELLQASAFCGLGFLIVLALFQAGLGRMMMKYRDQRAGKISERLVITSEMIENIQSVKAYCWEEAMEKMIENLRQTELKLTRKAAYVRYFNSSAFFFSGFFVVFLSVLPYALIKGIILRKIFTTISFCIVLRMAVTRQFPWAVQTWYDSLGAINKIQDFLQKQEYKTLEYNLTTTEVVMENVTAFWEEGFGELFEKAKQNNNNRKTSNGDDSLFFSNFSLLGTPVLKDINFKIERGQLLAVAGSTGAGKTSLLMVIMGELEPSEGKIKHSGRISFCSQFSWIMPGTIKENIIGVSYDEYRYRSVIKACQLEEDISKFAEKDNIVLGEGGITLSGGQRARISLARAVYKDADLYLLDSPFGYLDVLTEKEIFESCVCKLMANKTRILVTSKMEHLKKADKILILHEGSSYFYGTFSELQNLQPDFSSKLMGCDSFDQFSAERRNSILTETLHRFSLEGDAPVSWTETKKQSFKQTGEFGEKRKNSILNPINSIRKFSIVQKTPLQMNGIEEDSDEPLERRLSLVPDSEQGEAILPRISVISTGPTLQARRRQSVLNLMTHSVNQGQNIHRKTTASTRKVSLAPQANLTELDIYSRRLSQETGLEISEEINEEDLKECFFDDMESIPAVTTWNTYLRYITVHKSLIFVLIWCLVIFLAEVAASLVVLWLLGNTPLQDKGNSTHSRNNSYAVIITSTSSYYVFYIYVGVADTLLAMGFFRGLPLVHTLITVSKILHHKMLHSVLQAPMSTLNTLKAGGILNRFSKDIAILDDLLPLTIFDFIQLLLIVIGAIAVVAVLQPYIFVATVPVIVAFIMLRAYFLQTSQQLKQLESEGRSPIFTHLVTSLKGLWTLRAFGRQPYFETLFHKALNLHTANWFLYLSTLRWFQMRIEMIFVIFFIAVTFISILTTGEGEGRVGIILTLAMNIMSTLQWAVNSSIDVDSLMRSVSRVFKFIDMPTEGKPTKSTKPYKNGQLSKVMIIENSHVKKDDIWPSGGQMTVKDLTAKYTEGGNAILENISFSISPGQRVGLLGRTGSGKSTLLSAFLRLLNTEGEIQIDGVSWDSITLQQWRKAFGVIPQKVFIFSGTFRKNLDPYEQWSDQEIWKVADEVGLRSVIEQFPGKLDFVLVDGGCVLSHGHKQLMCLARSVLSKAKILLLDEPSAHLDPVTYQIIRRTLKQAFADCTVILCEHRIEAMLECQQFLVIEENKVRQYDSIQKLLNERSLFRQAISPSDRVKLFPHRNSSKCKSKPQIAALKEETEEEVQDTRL

Query: Form entry - test system: CFTR (F508del/MF-HBE cells) (Homo sapiens, UniProt P13569, DEL508-508); read-out: Emax; compound: COc1c2nc(nc1-c1c(C)cccc1C)NS(=O)(=O)c1cccc(c1)C(=O)N(Cc1cnc3cc(C4(C(F)(F)F)CC4)n(C)c3n1)[C@H](COC(C)C)CO2 [IV-104]
Reply: > 60%

Query: Form entry - test system: CFTR (F508del/MF-HBE cells) (Homo sapiens, UniProt P13569, DEL508-508); read-out: Emax; compound: CCc1cccc(CC)c1-c1nc2nc(c1C)OC[C@@H](CC(C)(C)C)N(Cc1cnc3cc(C4(C)CC4)n(C)c3n1)C(=O)c1cccc(c1)S(=O)(=O)N2 [IV-90]
Reply: > 60%

More entries:
Query: Form entry - test system: CFTR (F508del/MF-HBE cells) (Homo sapiens, UniProt P13569, DEL508-508); read-out: Emax; compound: Cc1cccc(C)c1-c1cc2nc(n1)NS(=O)(=O)c1cccc(c1)C(=O)N(Cc1cnc3oc(C4(C)CC4)cc3n1)[C@H](C[C@@H]1CCCCO1)CO2 [IV-87]
Reply: > 60%

* * *

target: CFTR (F508del/MF-HBE cells) (Homo sapiens, UniProt P13569, DEL508-508); construct: human bronchial epithelial (HBE) cells derived from CF subjects heterozygous for F508del and a minimal function CFTR mutation (F508del/MF-HBE); endogenous in cells; host or cells: Primary human bronchial epithelial cells from CF subjects (F508del/MF genotype), differentiated at an air-liquid interface; assay: Ussing chamber assay of CFTR-mediated short-circuit currents, Assay B (0.00001 μM to 25 μM, 12 concentrations); type: cell-based; conditions: with 33 nM potentiator and 18 μM Tezacaftor, 20% human serum
pEC50: −log10 of the molar value.
pEC50 overview

Query: Reported pEC50, molecule `Cc1cccc(C)c1-c1cc2nc(n1)NS(=O)(=O)c1cccc(c1)C(=O)N(Cc1cnc3nc(C4CC4)n(C)c3n1)[C@H](COC(C)C)CO2` : ____
Reply: 4.52 to 5.52

Query: Reported pEC50, molecule `Cc1cccc(C)c1-c1cc2nc(n1)NS(=O)(=O)c1cccc(c1)C(=O)N(Cc1cnc3oc(C4CCC4)cc3n1)[C@H](CC13CC(C1)C3)CO2` : ____
Reply: > 6.00

Query: Reported pEC50, molecule `Cc1cccc(C)c1-c1cc2nc(n1)NS(=O)(=O)c1cccc(c1)C(=O)N(Cc1cnc3oc(C4CC4)cc3n1)[C@H](CC1CCCC1)CO2` : ____
Reply: 4.52 to 5.52

Query: Reported pEC50, molecule `Cc1cccc(CC(C)C)c1-c1nc2nc(c1C)OC[C@@H](CC13CC(C1)C3)N(Cc1cnc3cc(C(C)(C)C)n(C)c3n1)C(=O)c1cccc(c1)S(=O)(=O)N2` : ____
Reply: > 6.00

More entries:
Query: Reported pEC50, molecule `Cc1cccc(C)c1-c1cc2nc(n1)NS(=O)(=O)c1cccc(c1)C(=O)N(Cc1cnc3oc(C4CC4)cc3n1)[C@H](CC1CC1)CO2` : ____
Reply: 5.52 to 6.00

* * *

target: CFTR (F508del/MF-HBE cells) (Homo sapiens, UniProt P13569, DEL508-508); construct: human bronchial epithelial (HBE) cells derived from CF subjects heterozygous for F508del and a minimal function CFTR mutation (F508del/MF-HBE); endogenous in cells; host or cells: Primary human bronchial epithelial cells from CF subjects (F508del/MF genotype), differentiated at an air-liquid interface; assay: Ussing chamber assay of CFTR-mediated short-circuit currents, Assay D (single concentration of 1 μM); format: cell-based; details: with 44 nM potentiator and 18 μM Tezacaftor, 20% human serum
readout: D act. at 1 μM (%)

Query: Reported D act. at 1 μM (%), compound `CCc1c2nc(nc1-c1c(C)cccc1C)NS(=O)(=O)c1cccc(c1)C(=O)N(Cc1cnc3cc(C(C)(C)C)n(C)c3n1)[C@H](COC(C)C)CO2` : ____
Reply: +++ (+++ is >60%)

Query: Reported D act. at 1 μM (%), compound `Cc1cccc(C)c1-c1cc2nc(n1)NS(=O)(=O)c1cccc(c1)C(=O)N(Cc1cnc3oc(C(C)(C)C)cc3n1)[C@H](CC1CCCCC1)CO2` : ____
Reply: +++ (+++ is >60%)

Query: Reported D act. at 1 μM (%), compound `Cc1cccc(C)c1-c1cc2nc(n1)NS(=O)(=O)c1cccc(c1)C(=O)N(Cc1cnc3oc(C(C)(C)C)cc3n1)[C@@H](C(C(C)C)C(C)C)CO2` : ____
Reply: +++ (+++ is >60%)

* * *

Target: CFTR (F508del/MF-HBE cells) (Homo sapiens, UniProt P13569, DEL508-508)
Construct: human bronchial epithelial (HBE) cells derived from CF subjects heterozygous for F508del and a minimal function CFTR mutation (F508del/MF-HBE); endogenous in cells; host or cells: Primary human bronchial epithelial cells from CF subjects (F508del/MF genotype), differentiated at an air-liquid interface
Assay: Ussing chamber assay of CFTR-mediated short-circuit currents, Assay C (0.026 μM to 25 μM, 6 concentrations)
Assay type: cell-based
Settings: with 33 nM potentiator and 18 μM Tezacaftor, 20% human serum
Procedure: Ussing chamber experiments were performed using human bronchial epithelial (HBE) cells derived from CF subjects heterozygous for F508del and a minimal function CFTR mutation (F508del/MF-HBE) and cultured as previously described (Neuberger T, Burton B, Clark H, Van Goor F Methods Mol Biol 2011:741:39-54). […] The activity of the CFTR corrector compounds on the CFTR-mediated ISC was determined in Ussing chamber studies as described above. […]
pEC50: −log10 of the molar value.
readout: pEC50

The examples below pair each entry with its known result.
Query: Reported pEC50, compound Cc1cccc(C)c1-c1cc2nc(n1)NS(=O)(=O)c1cccc(c1)C(=O)N(Cc1cnc3cc(C4CC4)n(C)c3n1)[C@@H](CCC1(C)CC1)CO2 (stereo in doubt) [Compound I-207] : ____
Reply: > 6.00

Query: Reported pEC50, compound Cc1cccc(C)c1-c1cc2nc(n1)NS(=O)(=O)c1cccc(c1)C(=O)N(Cc1cnc3oc(C4CC5(CC5)C4)cc3n1)[C@H](CC1(C)CC1)CO2 [IV-65] : ____
Reply: 5.52 to 6.00

Query: Reported pEC50, compound COCCc1c(C(C)(C)C)n(C)c2nc(CN3C(=O)c4cccc(c4)S(=O)(=O)Nc4nc(c(OC)c(-c5c(C)cccc5CC(C)C)n4)OC[C@H]3CC(C)(C)C)cnc12 (atropisomer, axis not shown) [IV-94] : ____
Reply: > 6.00

Query: Reported pEC50, compound Cc1cccc(CC(C)C)c1-c1nc2nc(c1C)OC[C@@H](COC(C)C)N(Cc1cnc3cc(C(C)(C)C(F)(F)F)n(C)c3n1)C(=O)c1cccc(c1)S(=O)(=O)N2 [IV-101] : ____
Reply: > 6.00

Next item in the queue.
Query: Reported pEC50, compound Cc1cccc(C)c1-c1cc2nc(n1)NS(=O)(=O)c1cccc(c1)C(=O)N(Cc1ccn3cc(C(C)C)nc3n1)[C@H](CC13CC(C1)C3)CO2 [IV-63] : ____
Reply: > 6.00

* * *

biological target: CFTR (F508del/MF-HBE cells) (Homo sapiens, UniProt P13569, DEL508-508); construct: human bronchial epithelial (HBE) cells derived from CF subjects heterozygous for F508del and a minimal function CFTR mutation (F508del/MF-HBE); endogenous in cells; host or cells: Primary human bronchial epithelial cells from CF subjects (F508del/MF genotype), differentiated at an air-liquid interface; assay: Ussing chamber assay of CFTR-mediated short-circuit currents, Assay D (single concentration of 1 μM); type: cell-based; conditions: with 44 nM potentiator and 18 μM Tezacaftor, 18-24 hours, 20% human serum
readout: D activity at 1 μM (%)

Query: Reported D activity at 1 μM (%), compound `Cc1cccc(C)c1-c1cc2nc(n1)NS(=O)(=O)c1cccc(c1)C(=O)N(Cc1cnc3c(n1)CN(C(C)C)C3=O)[C@H](CC13CC(C1)C3)CO2` : ____
Reply: +++ (+++ is >60%)

Query: Reported D activity at 1 μM (%), compound `Cc1cccc(C)c1-c1cc2nc(n1)NS(=O)(=O)c1cccc(c1)C(=O)N(Cc1cnc3oc(C4CC4)cc3n1)[C@@H](C1CC(C)(C)C1)CO2` : ____
Reply: +++ (+++ is >60%)

Query: Reported D activity at 1 μM (%), compound `Cc1cccc(C)c1-c1nc2nc(c1C)OC[C@@H](CC1(C)CC1)N(Cc1cnc3oc(C4(C)CC4)cc3n1)C(=O)c1cccc(c1)S(=O)(=O)N2` : ____
Reply: +++ (+++ is >60%)

Taken from patent US20250340574A1.
